All values here come from the supplement of paper PMC6555819.

Below, each entry is listed with its recorded PBM binding z-score.
system: VDR homodimer (NR concentration 270 nM); assay: PBM binding z-score (relative to random genomic background probes); higher = stronger binding; sequences stand for … in GC…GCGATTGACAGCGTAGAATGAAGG
assayEndpoint: PBM binding z-score

> print(dat)
                     constructsequence        assayendpoint  assayvalue
 1  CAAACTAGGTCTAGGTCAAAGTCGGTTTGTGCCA  PBM binding z-score         1.1
 2  ACTATTAGTTGAGACGAGGGCATCCGATAGGTTG  PBM binding z-score        1.38
 3  GGAACGAGGGCAAAATTGATAGCATCTGTCGACG  PBM binding z-score       0.356
 4  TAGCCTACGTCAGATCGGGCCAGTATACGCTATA  PBM binding z-score      -0.727
 5  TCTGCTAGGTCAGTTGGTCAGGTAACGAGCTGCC  PBM binding z-score      -0.545
 6  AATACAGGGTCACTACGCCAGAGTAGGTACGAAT  PBM binding z-score        3.21
 7  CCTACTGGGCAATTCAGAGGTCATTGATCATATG  PBM binding z-score        3.05
 8  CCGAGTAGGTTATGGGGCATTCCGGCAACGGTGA  PBM binding z-score       0.147
 9  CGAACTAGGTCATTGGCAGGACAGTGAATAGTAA  PBM binding z-score       0.995
10  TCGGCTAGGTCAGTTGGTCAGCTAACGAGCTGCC  PBM binding z-score      -0.233
11  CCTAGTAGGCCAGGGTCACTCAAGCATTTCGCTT  PBM binding z-score         1.6
12  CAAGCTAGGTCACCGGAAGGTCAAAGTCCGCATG  PBM binding z-score        3.87
